target: β2 adrenergic receptor; test: ELISA of panned Gs library clones on reconstituted receptor
assay.endpoint: ELISA

1) PRPRLLRFKIP [AG19 …]: 0.361
2) QRMPLRQYELL [AG9 …]: 0.19
3) QGEHLRQLQLQ [AG2 …]: 0.33
4) QRLRLRKYRLF [BAR31 …]: 0.026
5) PCIQLGQYESF [BAR40 …]: 0.028
6) QRVHLRQDELL [BAR2 …]: 0.197
7) QRMPLRLFEFL [AG3 …]: 0.217
8) QRIHRRPFKFF [BAR1 …]: 0.218
